Each recorded value in this set is attributed to the Human Domainome abundance scans (Beltran et al. 2025).

variants and their reported abundance fitness
B1: POU domain, class 3, transcription factor 2, residues 262 to 338; numbered along this chain, P20265 (parent)
chain: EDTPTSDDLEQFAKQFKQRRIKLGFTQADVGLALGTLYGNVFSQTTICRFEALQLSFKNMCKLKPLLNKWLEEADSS

variants of: B1; experiment: abundance fitness (aPCA) (normalised: wild type 0, dead -1); higher = more abundant; growth selection in yeast, the domain comes from the species named; conditions: Homo sapiens

chain sequence	abundance fitness
EDTPTSDDLEQFAKQFKQRRIKLGFTQADVGLALGTLEGNVFSQTTICRFEALQLSFKNMCKLKPLLNKWLEEADSS [Y38E]	-0.199
EDTPTSDDLEQFAKQFKQRRIKLGFTQADVGLALGTLYGNVFSQTTICRFEALQLSFKNMSKLKPLLNKWLEEADSS [C61S]	-0.165
EDTPTSDDLEQFAKQFKQRRIKLGFTQADVGLALGTLYGNVFSQTTICRFEALQLSFKNMCKLKPLLNKWLEEADVS [S76V]	0.01
EDTPTSDDLEQFDKQFKQRRIKLGFTQADVGLALGTLYGNVFSQTTICRFEALQLSFKNMCKLKPLLNKWLEEADSS [A13D]	-0.865
EDTPTSDDLEQFAKQFKQRRIKLGFTQADVGFALGTLYGNVFSQTTICRFEALQLSFKNMCKLKPLLNKWLEEADSS [L32F]	-0.25
EDTPTSDDLEQFAKQFKQRRIKLGFTQADVGLAFGTLYGNVFSQTTICRFEALQLSFKNMCKLKPLLNKWLEEADSS [L34F]	-0.732
EDTPTSDDLEQFAKQFKQRRIKLGFTQADVGLALGNLYGNVFSQTTICRFEALQLSFKNMCKLKPLLNKWLEEADSS [T36N]	0.052
EDTPTSDDLEQFAKQFKQRRIKLGFTQADVGLALGTLYGNVFSQTTICRFEALQLSFKNMCKLKPLLPKWLEEADSS [N68P]	-0.98
EDTPTSDDLEQFAKQFKQRRIKLGFTQADVGLALGTLYGNVFSQTTICRFEALQLSFKYMCKLKPLLNKWLEEADSS [N59Y]	-0.103
EDTPTSDDLEQLAKQFKQRRIKLGFTQADVGLALGTLYGNVFSQTTICRFEALQLSFKNMCKLKPLLNKWLEEADSS [F12L]	-0.776
EDTPTSDDLEQFAKQFKQRRIKLGFTQADVGLALGYLYGNVFSQTTICRFEALQLSFKNMCKLKPLLNKWLEEADSS [T36Y]	0.026
EDTPTSDDLEQFAKQFKQRRIKLGFTSADVGLALGTLYGNVFSQTTICRFEALQLSFKNMCKLKPLLNKWLEEADSS [Q27S]	-0.125
EDTPTSDDLEQFAKQFKQRRIKLGFTQADVGLALGTLYDNVFSQTTICRFEALQLSFKNMCKLKPLLNKWLEEADSS [G39D]	-0.079
EDTPTSDDLEQFAKQFKQREIKLGFTQADVGLALGTLYGNVFSQTTICRFEALQLSFKNMCKLKPLLNKWLEEADSS [R20E]	-0.712
EDTPTSDDLEQFAKQFKQRRIKLGFTQADVGLALGTLYGNVFSQTTICRFEDLQLSFKNMCKLKPLLNKWLEEADSS [A52D]	0.003
EDTPTSDDLEQFAKQFKQRRIKLGFLQADVGLALGTLYGNVFSQTTICRFEALQLSFKNMCKLKPLLNKWLEEADSS [T26L]	-0.758
EDTPTSDDLEQFAKQFKQRRIKLGFTQADVGLALGTLYGNVFSQTTICCFEALQLSFKNMCKLKPLLNKWLEEADSS [R49C]	-0.691
EDTPTSDDLEQFAKQFKQRRIKLGFTQADVGLALGTLYGNVFSQTTICRFEACQLSFKNMCKLKPLLNKWLEEADSS [L53C]	0.044
EDTPTSDDLEQFAKQFKQRRIKLGFTQADVGLALGTLYGNVFSQSTICRFEALQLSFKNMCKLKPLLNKWLEEADSS [T45S]	-0.013
EDTPTSDDLEQFAKQFKQRRIKLGFTQADVGLALGTLYGNVFSQTTICRFEALQLSFKNMCKLKPLLNKWLERADSS [E73R]	-0.147
EDTPTSDDLEQFAKQFKQRRIKLGFTQADVGLALGTLYGNVFSQTTICRFEALQLSFKNMCGLKPLLNKWLEEADSS [K62G]	-0.189
EDTPTSDDLEQFAKQFKQRRIKLGFTQADVGLALGTLYGNVFSQTIICRFEALQLSFKNMCKLKPLLNKWLEEADSS [T46I]	-0.1
EDTPTSDDLEQFAKQFKQRRIKLGFTQADVGLALGTLYGNVFSQTTICRFEALQLSFKGMCKLKPLLNKWLEEADSS [N59G]	-0.13
EDTPTSDDLEQFAKQFKQRRIKLGFTQADVGLALGTLYGNVFSQTTICRFEALQLSFKNMCKTKPLLNKWLEEADSS [L63T]	-0.524
EDTPTSDDLEQFAKQFKQRRIKLGFTQADVWLALGTLYGNVFSQTTICRFEALQLSFKNMCKLKPLLNKWLEEADSS [G31W]	-0.207
EDTPTSDDLEQFAKQFKQRLIKLGFTQADVGLALGTLYGNVFSQTTICRFEALQLSFKNMCKLKPLLNKWLEEADSS [R20L]	-0.766
EDTPTSDDLEQFAKQFKQRRIKLGFTQADVGLALGTLYGNVFSQTTICRFEALQLSFKNMCKLKPLLNKWLEETDSS [A74T]	-0.026
EDTPTSDDLEQFAKQFKQRRIKLGFTQADVGLALGTLYGNVFSWTTICRFEALQLSFKNMCKLKPLLNKWLEEADSS [Q44W]	-0.399
EDTPTSDDLEQFAKQFKQRRIKLGFTQADVGLALGILYGNVFSQTTICRFEALQLSFKNMCKLKPLLNKWLEEADSS [T36I]	-0.184
EDTPTSDDLEQFAKQFKQRRIKLGFTQADVGLALGTLYGNVFSQTTICRFEALQLSFKNMCKLKPLLTKWLEEADSS [N68T]	0.046
EDTPTSDDLEQFAKQFKQRRIKLGFTQADVGLALGTLYGNVFSQTTICRFEALQLSFKNMCKLKPLLNKWLEEADSA [S77A]	0.115
EDTPTSDDLEQFAKQFKQRRIKLGFTQADVGLALGTLYGNVFSQTTICRFEALQWSFKNMCKLKPLLNKWLEEADSS [L55W]	-0.645
EDTPTSDDLEQFAKQFKQRRIKLGFTQADVGLALGTLYGNVFSQTTICSFEALQLSFKNMCKLKPLLNKWLEEADSS [R49S]	-0.175
EDTPTSDDLEQFAKQFKQRRIKLGCTQADVGLALGTLYGNVFSQTTICRFEALQLSFKNMCKLKPLLNKWLEEADSS [F25C]	-0.192
EDTPTSDDLEQFAKQFKQRRIKLGFTQADVGLALGTLYGNVFSQTTICRFEALQLSFKNMCKLKPSLNKWLEEADSS [L66S]	-0.423
EDTPTSDDLEQFAKQFKQRRIKLGFTQADVGLALGTLYGNVFSQTTICRFEALQLSFKNMCKLKPLLNKWLELADSS [E73L]	-0.013
EDTPTSDDLEQFAKQFKQRRIKLGFTQADVGLALGTLYGNVFSQTTIPRFEALQLSFKNMCKLKPLLNKWLEEADSS [C48P]	-0.115
EDTPTSDDLEQFAKQTKQRRIKLGFTQADVGLALGTLYGNVFSQTTICRFEALQLSFKNMCKLKPLLNKWLEEADSS [F16T]	-0.677
